Tested on: LXRa:RXRa (NR concentration 270 nM, RXRa partner concentration 90 nM)
Protocol: PBM binding z-score (relative to random genomic background probes); higher = stronger binding; sequences stand for … in GC…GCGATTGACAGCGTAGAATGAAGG
Reported PBM binding z-score maps to class as: class A (below 0.2), class B (0.2 to below 3), class C (3 or more)

| Sequence string | Class |
| --- | --- |
| GATACAGGGTCAGCTAGACGCCAGAGTATGGAAA | class B |
| CAAACTAGGTCACCGGAAGGTCAAAGCCCGCATG | class C |
| TTACCAAGGCGAAGGTCGTTGATCCCTCTGTAGA | class B |
| AGTCAAAGTTCACTAGGAAACGTAAGATTCAGCT | class C |
| TCGAGTTGGTTAGGGGCATTCAGAATGGCGTCGA | class A |
| CAAGCTAGGTCAAGGTCAAAGTCGGTTTGTGCCA | class C |
| CCAACTGGGCCAAGGTCATTGATCAGTCAAAGCA | class B |
| TCTCGGAGGACACGAAGGTGAGAGCTTTCCAGAG | class A |
| GCGACTGGGGCAAGGCAGGTTACCATAAGGTTGG | class B |
| GATCGGAGGACAAGGTCAGAGCTTTGTCCGTAGA | class B |
| ATACCAAGGTGATCGTGAGGCCGTTGATACTAAC | class B |
| TCATATAGGTAATACAGGTGATAGTCGGCATCTA | class B |

====

Test system: THRa homodimer (NR concentration 90 nM)
Protocol: PBM binding z-score (relative to random genomic background probes); higher = stronger binding; sequences stand for … in GC…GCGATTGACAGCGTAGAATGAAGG
# PBM binding z-score per entry
Reported metric: PBM binding z-score

| Sequence string | Reported metric | Experimental value |
| --- | --- | --- |
| GGAACGAGGGCATACGAGTTGATAGCATGGCGAT | PBM binding z-score | -0.328 |
| AGTCAAAGTTCAGGACTAGGTAACGTAAAGCACG | PBM binding z-score | 0.371 |
| ATCGAAAGCTCGAGGTGAGTATAGAGAAAGGGAA | PBM binding z-score | -0.199 |
| ATATGTAGGTTAAATCCGGGTCATTCAGGCTATG | PBM binding z-score | 2.71 |
| CGTCCAAGGTCATAGGCGGTCAGTGAAGACAGAT | PBM binding z-score | 2.21 |
| AGAATGAGGTTACCAACGATCAGGGAAACGCTTG | PBM binding z-score | 0.794 |
| TCTATTAGTTGAAGGGCACCCGACGAGTCCGTTT | PBM binding z-score | 0.444 |
| GCGACTGGGGCAGAGCAGGTTACCATAAGGTTGG | PBM binding z-score | -0.115 |
| CAAACTAGGTCAAGAAGTCAAAGTCCGCTTCCCG | PBM binding z-score | 0.74 |
| CGTCCATGGTCAGCAGGTCAGTGAAAGCGACGTG | PBM binding z-score | -0.0849 |
| CAAACTAGGTCACCGGAAGGTCACAGTCCGCATG | PBM binding z-score | 3.69 |
| CCGACTGGGGCAAAGATTACCATACTCAGTACGA | PBM binding z-score | -0.518 |
| GGAACGATGGCAAGTTGATAGCAGAGTTTGATGG | PBM binding z-score | -0.814 |
| TTTTGTAGATCAAAGGTTAAGAAAGCCGAAGCCT | PBM binding z-score | -0.617 |
| AGAACGAGGGGACGCTGAGTTGATAGCAGAGTAG | PBM binding z-score | -0.233 |
| ACTATTAGTTGAGACGAGGGCAACGGATAGGTTG | PBM binding z-score | 0.137 |
| GCTACTAGGTCAACTGATGGTCAGCTAAAGCTCG | PBM binding z-score | 0.994 |
| CCAGACAAGTGAAAGGTAACTCAGTCTGGTACGC | PBM binding z-score | -0.287 |
| TAGCCTAGGTCATGGGCCACTATACCACGCGAAC | PBM binding z-score | 1.57 |
| CCTTCTGGGCCAAGGTCATTGATCAGTCAAAGCA | PBM binding z-score | 2.34 |
| CAAACTAGTTCACGAAAGGTCAAAGTCGAATGAC | PBM binding z-score | 1.16 |
| CCTGCTAGGTCAATGGTCACCTAAAGCAGCTCGC | PBM binding z-score | 1.32 |
| TCTATTAGTTGATTAGGGTAACCGAAACAGCGGA | PBM binding z-score | 0.861 |
| CACACTAGGTCAAGGTCAAAGTCGGTTTGTGCCA | PBM binding z-score | 4.03 |
| TAGACTAGGTCATGGGCCAGTATACCACGCGAAC | PBM binding z-score | 0.989 |
| AATACAGGGTCACCAGGCCAGAGTAGGTACGAAT | PBM binding z-score | 1.88 |

====

System: THRa:RXRa (NR concentration 90 nM, RXRa partner concentration 90 nM)
Protocol: PBM binding z-score (relative to random genomic background probes); higher = stronger binding; sequences stand for … in GC…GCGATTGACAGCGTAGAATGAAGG
# PBM binding z-score per entry

| Sequence string | PBM binding z-score |
| --- | --- |
| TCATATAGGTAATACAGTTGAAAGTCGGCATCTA | 0.327 |
| CCGACTAGGGCAAAGGTTACCATACTCAGTACGA | 2.14 |
| CCTTACGGGTTACGAGGTTATAGCACGACGAGCG | 2.23 |
| CCTAGTTGGTCAGGAGGTCACCCACCGGATATGA | 3.47 |
| ACTATTAGTTGACTTAGGGCAACCTATACGACGC | 1.72 |
| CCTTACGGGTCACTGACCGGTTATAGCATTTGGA | 2.56 |
| ATATGTAGGTTAGCTGCGGTCATTCAGACTAGGC | 4.05 |
| ATATGTAGGTTATCGGGTCAGTCAGTTTGCGCAT | 2.68 |
| CCGGACAGGTGAGAAGGTAACTCAGCCTCGATTA | 0.16 |
| CTCGAAAGGTCGTGCGCAGGTGAGTATACCAAAC | 3.58 |
| CCGAGTAGGCTATGGGGCATTCAGGCAACGGTGA | -0.343 |
| CGTCCAAGGTCTAAGGTCAGTGAAGAGATGACGG | 3.65 |

====

Test system: FXR:RXRa (NR concentration 270 nM, RXRa partner concentration 90 nM)
Protocol: PBM binding z-score (relative to random genomic background probes); higher = stronger binding; sequences stand for … in GC…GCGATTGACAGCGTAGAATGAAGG
PBM binding z-score below 0.07 gives no (0); PBM binding z-score at or above it gives yes (1).

| Sequence string | Assay target | Class |
| --- | --- | --- |
| CAGCCTAGGTCAGGGCCAGTATCGGAGGAACGTT | FXR:RXRa (NR concentration 270 nM, RXRa partner concentration 90 nM) | yes (1) |
| CCTTACGGGTCAAGGTTATAGAACGGGTGGTACG | FXR:RXRa (NR concentration 270 nM, RXRa partner concentration 90 nM) | yes (1) |
| ACTAGCAGGCCAAGGGTAACTCAAGATTAGTCCG | FXR:RXRa (NR concentration 270 nM, RXRa partner concentration 90 nM) | no (0) |
| ATCTCTAGGTAACAAGTTCGGTGAAAGAGAGGAC | FXR:RXRa (NR concentration 270 nM, RXRa partner concentration 90 nM) | yes (1) |
| TCGAGTAGGTTACCAATGGGGAATTCAGCTTTCT | FXR:RXRa (NR concentration 270 nM, RXRa partner concentration 90 nM) | yes (1) |
| GGAACGAGCGCATTCGAGTTGATAGCATGGCGAT | FXR:RXRa (NR concentration 270 nM, RXRa partner concentration 90 nM) | no (0) |

====

Tested on: LXRb homodimer (NR concentration 270 nM)
Protocol: PBM binding z-score (relative to random genomic background probes); higher = stronger binding; sequences stand for … in GC…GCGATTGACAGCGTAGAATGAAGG
# PBM binding z-score per entry

| Sequence string | PBM binding z-score |
| --- | --- |
| CCTGCTAGGTCATGGTCTGCTAATCTACAGTATG | -0.218 |
| GCGACTGGGGCAAAGCAGGCTACCATAAGGTTGG | -0.971 |
| ACTATTAGTTGAGACGAGGGCAACCAATAGGTTG | -0.0545 |
| ACTATTATTTGAGACGAGGGCAACCGATAGGTTG | 1.1 |
| TCATATAGGGAAAAGGTGAAAGTCGGTGTGGTAA | 0.109 |
| CGTCCAAGGTCAGCAGGTCAGTGATAGCGACGTG | -0.265 |
| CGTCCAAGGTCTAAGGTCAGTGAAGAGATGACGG | -0.547 |
| TCATATAGGTAGAAGGTGAAAGTCGGTGTGGTAA | -0.0966 |
| CGAACTAGGACAGAACAGGACAGTGAAGGATGAT | -0.58 |
| TCAGACAGGAGAAGGTAACTCAGGTACGCAGTCG | -0.646 |
| AGAACTAGGGCACGCTGAGTTGATAGCAGAGTAG | -0.896 |
| ATCGAAAGGTCGAGGTGAGCATAGAGAAAGGGAA | 0.363 |
